I'd be grateful if you could share measured ELISA for these entries.
- Measured On: T1, hBMPR1B-His (human BMPR1B extracellular domain, residues K14 to R126, with C-terminal 9x-Histidine tag) (human, UniProt O00238 14-126)
- T1 construct: Residues K14-R126 are counted on the hBMPR1B ORF (NM_001203); The IgK signal peptide of the vector is left out; also called hBMPR1B-CHis; human BMPR1B-his
- T1 sequence: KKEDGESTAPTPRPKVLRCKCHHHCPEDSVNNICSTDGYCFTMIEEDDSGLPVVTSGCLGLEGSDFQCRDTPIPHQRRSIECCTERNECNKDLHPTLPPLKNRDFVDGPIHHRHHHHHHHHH
- Experiment Notes: ELISA; note: unit not given here
Answers are plain numbers.

Binder | ELISA
SC91.3 (murine anti-BMPR1B antibody) (antibody, V domains shown, Murine hybridoma antibody) VH: QVQLQQPGAELVKPGASVKLSCKASGYTFTSYWMQWVKQRPGQGLEWIGEIDPSDSYTLYNQKFKGKATLTVDTSSSTAYMQLSSLTSEDSAVYFCARFGYYIEYWGQGTTLTVSS VL: DVVMTQTPLSLPVSLGDQASISCRSSQSLVHSTGNTYLHWYLQKPGQSPKLLIYKVSNRFSGVPDRFSGSGSGTDFTLKISRVEAEDLGVYFCSQSTHVPFTFGSGTKLEIK | 0.883

Below are some binders; for each one, tell me its ELISA.
1. SC91.19 (antibody, V domains shown) VH: QIQLVQSGPELKKPGETVKISCKASGYTFTTYGMNWVKQAPGKGLKWMGWINTYSGVPSSANDFKGRFAFSLETSASTAYLQINNLKNEDTATYFCARSELRNWYFDVWGTGTTVTVSS VL: SFVMTQTPKFLLVSAGDRVTITCKASQSVGNDVAWYQQKPGQSPKLLIYYASNRYTGVPDRFTGSGYGTDFTFTISTVQAEDLAVYFCQQDYSSPFTFGSGTKLEMK
2. SC91.1 (murine anti-BMPR1B antibody) (antibody, V domains shown, Murine hybridoma antibody with a kappa light chain) VH: QVQLQQPGAELVKPGASVKLSCKASGYTFTSYWMQWVKQRPGQGLEWIGEIDPSDNYTLYNQKFKGKATLTVDTSSSTAYMQLSSLTSEDSAVYYCARFGYYVDYWGLGTTLTVSS VL: DVVMTQTPLSLPVSLGDQASIFCRSSQSLVHSTGNTYLHWYLQKPGQSPKLLIYKVSNRFSGVPDRFSGSGSGTDFTLKISRVEAEDLGVYFCSQSTHVPFTFGSGTKLEIK

Result:
1. 1.46
2. 1.17

Ask: // returns reported ELISA for input SC91.9 (murine anti-BMPR1B antibody) (antibody, V domains shown, Murine hybridoma antibody) VH: QVQLQQPGAELVKPGASVKLSCKASGYTFISYWMHWVKQRPGQGLEWIGMIHPNSGSTNYNESFKSKATLTVDKSSSTAYMQLSSLTSEDSAVYYCARDLLIATVVVTPYFAYWGQGTILTVSS VL: DIQMTQTTSSLSASLGDRVTISCRASQDISNFLNWYQQKPDGTIKFLIYYTSRLHSGVPSRFSGSGSGTDYSLTIRNLEQEDIATYFCQQGNTLPYTFGGGTKLEIK
Result: 1.41
